# testedTarget: human CB1 (hCB1) receptor (Homo sapiens)
# Construct: expressed in transfected cells; host or cells: CHO-K1
# testDescription: Inhibition of forskolin-activated cAMP production upon activation of hCB1 (HTRF), CHO-K1 cells
# Assay type: cell-based
# condition: CB1 pEC50, hCB1-CHO-K1 cells, forskolin-activated cAMP, pEC50=-log(EC50)
propertyMeasured: log10 EC50 (log10 of the value in nM)

> print(dat)
                                    molecule  assayvalue
 1  CC(C)(C)c1nc2cc(S(=O)(=O)c3c(Cl)cncc3Cl)ccc2n1CC1CCOCC1        2.79
 2  CC(C)(C)c1nc2cc(S(=O)(=O)c3cncc(C#N)c3)ccc2n1CC1CCOCC1        3.21
 3  CC(C)(C)c1nc2cc(S(=O)(=O)c3ccc(C(N)=O)s3)ccc2n1CC1CCOCC1        2.07
 4  Cc1cccc(S(=O)(=O)c2ccc3c(c2)nc(C(C)(C)C)n3CC2CCOCC2)n1        2.42
 5  Cc1[nH][n+]([O-])cc1[S+]([O-])c1ccc2c(c1)nc(C(C)(C)C)n2CC1CCOCC1 (stereo not shown)        2.89
 6  CC(C)(C)c1nc2cc(S(=O)(=O)c3ccnc(OC(F)F)c3)ccc2n1CC1CCOCC1        3.58
 7  COCCCn1cc(S(=O)(=O)c2ccc3c(c2)nc(C(C)(C)C)n3CC2CCOCC2)cn1        3.72
 8  CC(C)(C)c1nc2cc(S(=O)(=O)c3coc(C4OCCO4)c3)ccc2n1CC1CCOCC1        2.92
 9  CCCCN(C)c1cc(S(=O)(=O)c2ccc3c(c2)nc(C(C)(C)C)n3CC2CCOCC2)ccn1        2.92
10  CC(C)(C)c1nc2cc(S(=O)(=O)c3ccc(CN)nc3)ccc2n1CC1CCOCC1        3.76
11  COc1ccc(S(=O)(=O)c2ccc3c(c2)nc(C(C)(C)C#N)n3CC2CCOCC2)nn1        3.47
12  CC(C)(C)c1nc2cc(S(=O)(=O)c3ccc(S(C)(=O)=O)o3)ccc2n1CC1CCOCC1        2.64
13  COc1cc(S(=O)(=O)c2ccc3c(c2)nc(C(C)(C)C)n3CC2CCC(F)(F)CC2)ccn1        2.00
14  CC(C)(C)c1nc2cc(S(=O)(=O)c3sc(S(C)(=O)=O)cc3Br)ccc2n1CC1CCOCC1 [Co. No. 62]        3.29
15  COc1ncc(S(=O)(=O)c2ccc3c(c2)nc(C(C)(C)C)n3CC2CCOCC2)cn1        2.63

----------
# testedTarget: human CB2 (hCB2) receptor (Homo sapiens, UniProt P34972)
# Construct: expressed in transfected cells; host or cells: CHO-K1
# Sequence (P34972 whole entry): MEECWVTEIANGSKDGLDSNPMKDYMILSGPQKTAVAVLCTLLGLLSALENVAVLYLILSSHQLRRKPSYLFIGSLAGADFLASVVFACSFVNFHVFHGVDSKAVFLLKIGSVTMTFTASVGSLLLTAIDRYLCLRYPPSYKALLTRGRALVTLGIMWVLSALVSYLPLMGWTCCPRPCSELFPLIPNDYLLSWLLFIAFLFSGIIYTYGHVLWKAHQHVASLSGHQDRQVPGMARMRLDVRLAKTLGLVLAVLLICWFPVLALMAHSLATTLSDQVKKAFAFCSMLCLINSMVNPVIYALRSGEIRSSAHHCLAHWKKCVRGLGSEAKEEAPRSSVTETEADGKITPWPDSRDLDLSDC
# testDescription: Inhibition of forskolin-activated cAMP production upon activation of hCB2 (HTRF), CHO-K1 cells
# Format: cell-based
# condition: hCB2-CHO-K1 cells, forskolin-activated cAMP, pEC50=-log(EC50); read-out: CB2 pEC50 (converted)
Recorded EC50 values for a group of molecules are listed next.
propertyMeasured: EC50 (nM)

> print(dat)
                                   molecule  propertymeasured  unitname  assayvalue
1  CC(=O)N1CCC(Cn2c(C(C)(C)C)nc3cc(S(=O)(=O)c4cnn(C)c4)ccc32)CC1 [Co. No. 168]              EC50        nM        8.13
2  Cc1cc(S(=O)(=O)c2ccc3c(c2)nc(C(C)(C)C)n3CC2CCOCC2)ccn1 [Co. No. 13]              EC50        nM        1.26
3  COC(=O)c1cc(S(=O)(=O)c2ccc3c(c2)nc(C(C)(C)C)n3CC2CCOCC2)c[nH]1 [Co. No. 75]              EC50        nM        4.17
4  CC(C)(C)c1nc2cc(S(=O)(=O)c3coc(C4OCCO4)c3)ccc2n1CC1CCOCC1 [Co. No. 55]              EC50        nM        2.29

----------
Recorded melting point values for a group of molecules are listed next.
propertyMeasured: melting point (°C)

> print(dat)
                      structuresmilesstring  unitname  assayvalue
1  CC(C)(C)c1nc2cc(S(=O)(=O)c3cncc(C#N)c3)ccc2n1CC1CCOCC1        °C         240
2  CC(C)(C)c1nc2cc(S(=O)(=O)c3cc[n+]([O-])cc3)ccc2n1CC1CCOCC1        °C         203
3  CC(C)(C)c1nc2cc(S(=O)(=O)c3ccnc(C(N)=O)c3)ccc2n1CC1CCOCC1        °C       247.1
4  CC(C)(C)c1nc2cc(S(=O)(=O)c3ccnc(F)c3)ccc2n1CC1CCN(C=O)CC1        °C       196.7
5  CC(C)(C)c1nc2cc(S(=O)(=O)c3ccc(C(N)=O)o3)ccc2n1CC1CCOCC1        °C       234.8
6  Cc1cc(S(=O)(=O)c2ccc3c(c2)nc(CC(C)(C)C)n3CC2CCOCC2)cc[n+]1[O-]        °C       231.7
7  CC(C)(C)c1nc2cc(S(=O)(=O)c3sc(S(=O)(=O)N4CCOCC4)cc3Br)ccc2n1CC1CCOCC1        °C         230
8  CC(C)(C)Cn1c(C(C)(C)C)nc2cc(S(=O)(=O)c3ccnc(F)c3)ccc21        °C       135.4
9  CC(=O)Nc1ccc(S(=O)(=O)c2ccc3c(c2)nc(C(C)(C)C)n3CC2CCOCC2)nn1        °C       290.1

----------
# testedTarget: human CB2 (hCB2) receptor (Homo sapiens)
# Construct: expressed in transfected cells; host or cells: CHO-K1
# testDescription: Inhibition of forskolin-activated cAMP production upon activation of hCB2 (HTRF), CHO-K1 cells
# Format: cell-based
# condition: Table C-1; selectivity hCB2 over hCB1
Recorded ratio CB2 agonism over CB1 agonism values for a group of molecules are listed next.
propertyMeasured: ratio CB2 agonism over CB1 agonism

> print(dat)
                                    molecule  assayvalue
 1  CC(C)(C)c1nc2cc(S(=O)(=O)c3ncc(S(C)(=O)=O)cc3Br)ccc2n1CC1CCOCC1        >832
 2  CC(C)(C)c1nc2cc(S(=O)(=O)c3ccnc(C(N)=O)c3)ccc2n1CC1CCOCC1         359
 3  CC(C)(C)c1nc2cc(S(=O)(=O)c3ccc(C(=O)N4CCCC4)o3)ccc2n1CC1CCOCC1         668
 4  CC(C)(C)c1nc2cc(S(=O)(=O)c3ccc(C(N)=O)cn3)ccc2n1CC1CCOCC1        1884
 5  CC(C)(C)c1nc2cc(S(=O)(=O)c3ccnc(F)c3)ccc2n1CCN1CCCC1       >3090
 6  CC(C)(C)c1nc2cc(S(=O)(=O)c3ccc(O)nc3)ccc2n1CC1CCOCC1       >1995
 7  COC(=O)c1cc(C)c(S(=O)(=O)c2ccc3c(c2)nc(C(C)(C)C)n3CC2CCOCC2)s1        2138
 8  CC(C)(C)c1nc2cc(S(=O)(=O)c3ccc(O)nc3)ccc2n1CC1CCCCC1        1216
 9  COCCOc1cc(S(=O)(=O)c2ccc3c(c2)nc(C(C)(C)C)n3CC2CCOCC2)ccn1         638
10  CC(C)(C)c1nc2cc(S(=O)(=O)c3ccc(C(=O)N4CCCC4)cn3)ccc2n1CC1CCCCC1       >3631
11  CCCC(C)Cn1c(C(C)(C)C)nc2cc(S(=O)(=O)c3ccnc(F)c3)ccc21 (stereo not shown)      >38905
12  CC(C)(C)c1nc2cc(S(=O)(=O)c3ccnc(/C=C\Cl)c3)ccc2n1CC1CCOCC1        >692
13  Cn1cc(S(=O)(=O)c2ccc3c(c2)nc(C(C)(C)C)n3CC2CCOCC2)ccc1=O       >3467
14  CC(C)(C)c1nc2cc(S(=O)(=O)c3cc(O)ncc3F)ccc2n1CC1CCOCC1         407
15  CC(C)(C)c1nc2cc(S(=O)(=O)c3ccc(S(C)(=O)=O)cn3)ccc2n1CC1CCOCC1       >2344
16  CC(C)(C)CCn1c(C(C)(C)C)nc2cc(S(=O)(=O)c3ccnc(F)c3)ccc21       >4365

----------
# testedTarget: human CB1 (hCB1) receptor (Homo sapiens, UniProt P21554)
# Construct: expressed in transfected cells; host or cells: CHO-K1
# Sequence (P21554 whole entry): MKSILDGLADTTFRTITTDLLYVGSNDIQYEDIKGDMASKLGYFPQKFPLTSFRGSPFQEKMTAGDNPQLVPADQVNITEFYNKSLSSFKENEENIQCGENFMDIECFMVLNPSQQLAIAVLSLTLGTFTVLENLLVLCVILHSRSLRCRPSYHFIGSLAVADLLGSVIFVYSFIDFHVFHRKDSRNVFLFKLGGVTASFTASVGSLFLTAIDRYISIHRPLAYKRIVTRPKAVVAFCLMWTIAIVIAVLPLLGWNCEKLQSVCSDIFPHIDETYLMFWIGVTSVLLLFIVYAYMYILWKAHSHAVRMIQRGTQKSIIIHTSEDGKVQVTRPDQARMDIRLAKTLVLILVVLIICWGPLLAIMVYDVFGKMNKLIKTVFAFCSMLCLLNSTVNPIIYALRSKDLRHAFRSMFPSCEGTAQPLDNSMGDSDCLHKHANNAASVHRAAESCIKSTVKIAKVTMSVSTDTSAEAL
# testDescription: Inhibition of forskolin-activated cAMP production upon activation of hCB1 (HTRF), CHO-K1 cells
# Type: cell-based
# condition: CB1 pEC50, hCB1-CHO-K1 cells, forskolin-activated cAMP, pEC50=-log(EC50)
pEC50: −log10 of the molar value.
propertyMeasured: pEC50

> print(dat)
                       structuresmilesstring  reportedrelation  assayvalue
 1  CC(C)(C)c1nc2cc(S(=O)(=O)c3ccc(S(C)(=O)=O)cn3)ccc2n1CC1CCOCC1                 <        5.00
 2  CC(C)(C)c1nc2cc(S(=O)(=O)c3ccc(C(C)(C)O)s3)ccc2n1CC1CCOCC1                 =        5.65
 3  CC(C)(C)c1nc2cc(S(=O)(=O)c3ccc(S(=O)(=O)N4CCOCC4)s3)ccc2n1CC1CCOCC1                 <        5.00
 4  CN(C)CCCOc1cc(S(=O)(=O)c2ccc3c(c2)nc(C(C)(C)C)n3CC2CCOCC2)ccn1                 =        5.02
 5  CC(=O)N1CCC(Cn2c(C(C)(C)C)nc3cc(S(=O)(=O)c4ccc(C#N)s4)ccc32)CC1                 <        5.00
 6  Cc1nc(-c2csc(S(=O)(=O)c3ccc4c(c3)nc(C(C)(C)C)n4CC3CCOCC3)c2)no1                 =        6.59
 7  COc1ccc(S(=O)(=O)c2ccc3c(c2)nc(C(C)(C)C)n3CC2CCOCC2)nn1                 =        7.22
 8  COC(=O)c1ccc(S(=O)(=O)c2ccc3c(c2)nc(C(C)(C)C)n3CC2CCCCC2)nc1                 =        7.49
 9  Cn1nc(S(=O)(=O)c2ccc3c(c2)nc(C(C)(C)C)n3CC2CCOCC2)ccc1=O                 =        6.00
10  CC(C)(C)c1nc2cc(S(=O)(=O)c3ccc(C(=O)O)cn3)ccc2n1CC1CCCCC1                 =        5.41
11  CC(=O)NCCCCc1cc(S(=O)(=O)c2ccc3c(c2)nc(C(C)(C)C)n3CC2CCOCC2)ccn1                 <        5.00
12  Cc1noc(C)c1S(=O)(=O)c1ccc2c(c1)nc(C(C)(C)C)n2CC1CCOCC1                 =        6.24
13  CC(C)(C)c1nc2cc(S(=O)(=O)c3ccnc(F)c3)ccc2n1CC1CCOCC1                 =        6.39
14  Cn1cc(S(=O)(=O)c2ccc3c(c2)nc(C(C)(C)C)n3CC2CCOCC2)ccc1=O                 <        5.00
15  CC(C)(C)c1nc2cc(S(=O)(=O)c3ccn(C(F)F)c(=O)c3)ccc2n1CC1CCOCC1                 =        6.39
16  CC(C)(C)c1nc2cc(S(=O)(=O)c3ccc(C(=O)N4CCOCC4)s3)ccc2n1CC1CCOCC1                 =        5.80
